Molecular target: T1, recombinant glutathione-S-transferase (GST)–Actn4 fusion protein (human, UniProt O43707 1-911)
T1 construct: also called Actn4-GST; source: recombinant, purified
T1 sequence (O43707 whole entry, the tested form may be a part): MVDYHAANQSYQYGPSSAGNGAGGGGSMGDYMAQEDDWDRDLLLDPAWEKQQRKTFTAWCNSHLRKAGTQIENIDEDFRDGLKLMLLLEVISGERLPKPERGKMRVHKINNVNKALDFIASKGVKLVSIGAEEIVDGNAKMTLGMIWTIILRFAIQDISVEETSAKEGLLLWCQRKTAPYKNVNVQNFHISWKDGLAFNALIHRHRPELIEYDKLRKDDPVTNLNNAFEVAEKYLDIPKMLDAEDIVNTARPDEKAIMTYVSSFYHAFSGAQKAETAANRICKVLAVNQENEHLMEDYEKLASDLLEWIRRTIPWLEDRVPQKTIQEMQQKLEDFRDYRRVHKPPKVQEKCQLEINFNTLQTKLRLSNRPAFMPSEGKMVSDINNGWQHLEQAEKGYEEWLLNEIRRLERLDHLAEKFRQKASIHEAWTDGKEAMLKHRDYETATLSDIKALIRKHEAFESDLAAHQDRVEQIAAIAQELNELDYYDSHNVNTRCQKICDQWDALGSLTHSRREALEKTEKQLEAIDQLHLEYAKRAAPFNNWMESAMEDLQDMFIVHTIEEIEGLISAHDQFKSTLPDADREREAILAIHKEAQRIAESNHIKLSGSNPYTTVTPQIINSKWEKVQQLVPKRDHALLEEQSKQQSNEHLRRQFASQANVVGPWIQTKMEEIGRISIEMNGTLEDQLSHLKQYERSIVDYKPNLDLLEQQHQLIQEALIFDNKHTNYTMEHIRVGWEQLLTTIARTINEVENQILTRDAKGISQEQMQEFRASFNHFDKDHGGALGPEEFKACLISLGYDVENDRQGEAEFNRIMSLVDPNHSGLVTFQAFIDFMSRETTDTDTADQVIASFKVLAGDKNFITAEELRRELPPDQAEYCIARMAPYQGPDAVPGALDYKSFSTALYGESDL
Experiment: SPR; BIAcore T200, biotinylated peptide captured on streptavidin chip, GST-Actn4 as analyte, reducing buffer (10 mM HEPES, 150 mM NaCl, 1 mM EDTA, 1 mM dithiothreitol, 0.005% Tween-20); apparent affinity
Details: both partners purified
pKd: −log10 of the molar value. No end group written: not given here. *: point of attachment. Biotin = O=C1N[C@H]2[C@H](CS[C@H]2CCCCC(=O)*)N1

{"columns": ["binder", "pKd"],
 "data": [
  ["Biotin-AYDKRRKPEDVLDDDDAGSAPLKSSGQHQNDKGKNVRQRNSS (also called CD147-CT; CD147 peptide; source: synthetic peptide, bought: ProteoGenix) [biotinylated peptide encoding the cytosolic sequence of CD147]", 4.35]
]}
